Target: gEgI mutant (338): HSV2 gEgI mutant heterodimer comprising gE and gI ectodomains with insertion of a (HSV2, UniProt P89475 21-416; P06764 21-256)
Experiment: ELISA, supernatant
endpoint: binding result

>>> test_result("mAb clone 40 (antibody, V domains shown) VH: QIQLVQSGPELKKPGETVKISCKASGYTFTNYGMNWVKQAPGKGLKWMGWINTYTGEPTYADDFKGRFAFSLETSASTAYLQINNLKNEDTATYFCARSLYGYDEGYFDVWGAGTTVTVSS VL: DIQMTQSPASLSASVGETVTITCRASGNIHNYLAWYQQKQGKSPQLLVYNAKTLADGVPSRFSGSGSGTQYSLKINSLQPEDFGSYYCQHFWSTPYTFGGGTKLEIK")
"binds"
>>> test_result("mAb clone 17 (antibody, V domains shown) VH: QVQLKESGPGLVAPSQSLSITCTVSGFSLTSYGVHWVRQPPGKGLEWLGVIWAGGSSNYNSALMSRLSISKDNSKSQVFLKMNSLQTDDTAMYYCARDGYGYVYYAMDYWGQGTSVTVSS VL: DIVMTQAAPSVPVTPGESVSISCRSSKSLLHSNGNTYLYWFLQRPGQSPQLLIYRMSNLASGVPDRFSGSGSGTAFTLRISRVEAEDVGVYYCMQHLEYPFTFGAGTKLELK")
"binds"
>>> test_result("mAb clone 15 (antibody, V domains shown) VH: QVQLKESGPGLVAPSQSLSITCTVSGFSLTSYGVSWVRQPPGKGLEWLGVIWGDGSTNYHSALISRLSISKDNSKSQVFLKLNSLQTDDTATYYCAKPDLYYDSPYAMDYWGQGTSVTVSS VL: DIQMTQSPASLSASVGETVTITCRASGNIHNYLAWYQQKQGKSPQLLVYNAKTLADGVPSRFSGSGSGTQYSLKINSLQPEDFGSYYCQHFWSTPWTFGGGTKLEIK")
"binds"
